# credit: patent US8658604B2

# IC50 per record follows
- measured-target: Elastase from human neutrophils (Homo sapiens)
- Sequence (P08246 30-267): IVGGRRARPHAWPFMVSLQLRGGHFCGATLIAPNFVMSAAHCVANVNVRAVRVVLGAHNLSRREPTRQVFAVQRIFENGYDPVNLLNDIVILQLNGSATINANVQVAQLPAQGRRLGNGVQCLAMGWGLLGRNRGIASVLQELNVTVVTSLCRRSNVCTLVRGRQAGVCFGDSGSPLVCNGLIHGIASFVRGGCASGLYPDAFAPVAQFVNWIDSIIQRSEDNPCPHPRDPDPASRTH
- test-method-notes: Enzymatic assay, elastase
- condition-label: Elastase IC50
Where a SMILES comes first, the peptide text is derived from it.

Below, each entry is followed by its recorded IC50 result.
molecule: CCCC[C@@H]1NC(=O)[C@@H]2CCCN2C(=O)[C@@H](CC(=O)O)NC(=O)[C@H](Cc2ccc(O)cc2)NC(=O)[C@@H]2CSSC[C@H](NC1=O)C(=O)N[C@@H]([C@@H](C)O)C(=O)N[C@@H](C)C(=O)N[C@@H](CO)C(=O)N[C@@H]([C@@H](C)CC)C(=O)N1CCC[C@H]1C(=O)N1CCC[C@H]1C(=O)N[C@@H](CCC(N)=O)C(=O)N2 [Ex. 115] (HELM PEPTIDE1{[Nle].C.T.A.S.I.P.P.Q.C.Y.[dD].P}$PEPTIDE1,PEPTIDE1,2:R3-10:R3|PEPTIDE1,PEPTIDE1,1:R1-13:R2$$$V2.0)
IC50: 38 nM
//
molecule: CCCC[C@@H]1NC(=O)[C@H](CCC(N)=O)NC(=O)[C@H]2CCCN2C(=O)[C@H](Cc2ccc(O)cc2)NC(=O)[C@@H]2CSSC[C@H](NC1=O)C(=O)N[C@@H]([C@@H](C)O)C(=O)N[C@@H](C)C(=O)N[C@@H](CO)C(=O)N[C@@H]([C@@H](C)CC)C(=O)N1CCC[C@H]1C(=O)N1CCC[C@H]1C(=O)N[C@@H](CCC(N)=O)C(=O)N2 [Ex. 123] (HELM PEPTIDE1{[Nle].C.T.A.S.I.P.P.Q.C.Y.[dP].Q}$PEPTIDE1,PEPTIDE1,2:R3-10:R3|PEPTIDE1,PEPTIDE1,1:R1-13:R2$$$V2.0)
IC50: 14 nM
//
molecule: CCCC[C@@H]1NC(=O)[C@@H]2CCCN2C(=O)[C@H]2CCCN2C(=O)[C@H](Cc2ccc(O)cc2)NC(=O)[C@@H]2CSSC[C@H](NC1=O)C(=O)N[C@@H]([C@@H](C)O)C(=O)N[C@@H](C)C(=O)N[C@@H](CO)C(=O)N[C@@H](C1CCCCC1)C(=O)N1CCC[C@H]1C(=O)N1CCC[C@H]1C(=O)N[C@@H](CCC(N)=O)C(=O)N2 [Ex. 84] (HELM PEPTIDE1{[Nle].C.T.A.S.[O=C([C@@H](N[*:1])C1CCCCC1)[*:2]].P.P.Q.C.Y.[dP].P}$PEPTIDE1,PEPTIDE1,2:R3-10:R3|PEPTIDE1,PEPTIDE1,1:R1-13:R2$$$V2.0)
IC50: 18 nM
//
molecule: CCCC[C@@H]1NC(=O)[C@@H]2CCCN2C(=O)[C@H]2CCCN2C(=O)[C@H](Cc2ccc(O)cc2)NC(=O)[C@@H]2CSSC[C@H](NC1=O)C(=O)N[C@@H]([C@@H](C)O)C(=O)N[C@@H](C)C(=O)N[C@@H](CO)C(=O)N[C@@H]([C@@H](C)CC)C(=O)N1CCC[C@H]1C(=O)N1CCC[C@H]1C(=O)N[C@@H](CCC(N)=O)C(=O)N2 [Ex. 179] (HELM PEPTIDE1{[Nle].C.T.A.S.I.P.P.Q.C.Y.[dP].P}$PEPTIDE1,PEPTIDE1,2:R3-10:R3|PEPTIDE1,PEPTIDE1,1:R1-13:R2$$$V2.0)
IC50: 50 nM
//
molecule: CC[C@H](C)[C@@H]1NC(=O)[C@@H]2CCCN2C(=O)[C@H]2CCCN2C(=O)[C@H](CCCNC(=N)N)NC(=O)[C@@H]2CSSC[C@H](NC1=O)C(=O)N[C@@H]([C@@H](C)O)C(=O)N[C@@H](CCCCN)C(=O)N[C@@H](CO)C(=O)N[C@@H](CC(=O)O)C(=O)N1CCC[C@H]1C(=O)N1CCC[C@H]1C(=O)N[C@@H](CCC(N)=O)C(=O)N2 [Ex. 17] (HELM PEPTIDE1{I.C.T.K.S.D.P.P.Q.C.R.[dP].P}$PEPTIDE1,PEPTIDE1,2:R3-10:R3|PEPTIDE1,PEPTIDE1,1:R1-13:R2$$$V2.0)
IC50: > 100000 nM

Problem: // IC50 lookup, key: CC[C@H](C)[C@@H]1NC(=O)[C@@H]2CCCN2C(=O)[C@@H]2CCCN2C(=O)[C@H](CC(=O)O)NC(=O)[C@H](CO)NC(=O)[C@H](CCCCN)NC(=O)[C@H]([C@@H](C)O)NC(=O)[C@@H]2CSSC[C@H](NC1=O)C(=O)N[C@@H](CC(N)=O)C(=O)N1CCC[C@@H]1C(=O)N1CCC[C@H]1C(=O)N[C@@H](Cc1ccccc1)C(=O)N2 [Ex. 3] (HELM PEPTIDE1{F.C.T.K.S.D.P.P.I.C.N.[dP].P}$PEPTIDE1,PEPTIDE1,2:R3-10:R3|PEPTIDE1,PEPTIDE1,1:R1-13:R2$$$V2.0)
Result: > 100000 nM

Problem: # input molecule: CCCCCCCC[C@@H]1NC(=O)[C@@H]2CCCN2C(=O)[C@H]2CCCN2C(=O)[C@H](Cc2ccc(O)cc2)NC(=O)[C@@H]2CSSC[C@H](NC1=O)C(=O)N[C@@H]([C@@H](C)O)C(=O)N[C@@H](C)C(=O)N[C@@H](CO)C(=O)N[C@@H](CC1CCCCC1)C(=O)N1CCC[C@H]1C(=O)N1CCC[C@H]1C(=O)N[C@@H](CCC(N)=O)C(=O)N2 [Ex. 150] (HELM PEPTIDE1{[CCCCCCCC[C@H](N[*:1])C(=O)[*:2]].C.T.A.S.[Cha].P.P.Q.C.Y.[dP].P}$PEPTIDE1,PEPTIDE1,2:R3-10:R3|PEPTIDE1,PEPTIDE1,1:R1-13:R2$$$V2.0) ; wanted: its IC50
Result: 10 nM

Problem: Need IC50 of CC[C@H](C)[C@@H]1NC(=O)[C@@H]2CCCN2C(=O)[C@@H]2CCCN2C(=O)[C@H](CC(=O)O)NC(=O)[C@H](CO)NC(=O)[C@H](CCCCN)NC(=O)[C@H]([C@@H](C)O)NC(=O)[C@@H]2CSSC[C@H](NC1=O)C(=O)N[C@@H](Cc1ccc(O)cc1)C(=O)N1CCC[C@@H]1C(=O)N1CCC[C@H]1C(=O)N[C@@H](C1CCCCC1)C(=O)N2 [Ex. 40] (HELM PEPTIDE1{[O=C([C@@H](N[*:1])C1CCCCC1)[*:2]].C.T.K.S.D.P.P.I.C.Y.[dP].P}$PEPTIDE1,PEPTIDE1,2:R3-10:R3|PEPTIDE1,PEPTIDE1,1:R1-13:R2$$$V2.0) , thanks.
Result: > 44900 nM
